- ASSAY_SYSTEM: BTK (Homo sapiens, UniProt Q06187)
- Construct: endogenous in cells; host or cells: TMD8 cells
- Sequence (Q06187 whole entry): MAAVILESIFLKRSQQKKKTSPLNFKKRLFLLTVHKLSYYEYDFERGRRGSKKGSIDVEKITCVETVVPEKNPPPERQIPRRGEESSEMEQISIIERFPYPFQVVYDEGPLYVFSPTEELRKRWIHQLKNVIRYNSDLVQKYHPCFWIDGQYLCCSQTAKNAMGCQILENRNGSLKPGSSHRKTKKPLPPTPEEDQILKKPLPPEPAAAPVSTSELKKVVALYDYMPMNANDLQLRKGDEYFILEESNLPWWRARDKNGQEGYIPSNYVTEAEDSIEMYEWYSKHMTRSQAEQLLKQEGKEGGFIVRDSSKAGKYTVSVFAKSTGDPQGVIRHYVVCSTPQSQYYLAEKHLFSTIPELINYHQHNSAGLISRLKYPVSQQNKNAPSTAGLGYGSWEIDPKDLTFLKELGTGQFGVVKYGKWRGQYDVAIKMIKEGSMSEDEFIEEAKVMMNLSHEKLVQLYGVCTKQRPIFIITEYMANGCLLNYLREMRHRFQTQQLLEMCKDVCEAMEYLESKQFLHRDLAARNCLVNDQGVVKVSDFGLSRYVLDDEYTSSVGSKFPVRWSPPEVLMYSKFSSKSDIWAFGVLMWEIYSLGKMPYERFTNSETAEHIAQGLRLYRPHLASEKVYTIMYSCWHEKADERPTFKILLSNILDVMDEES
- ASSAY_TEXT: Cellular BTK HTRF assay (BTK degradation) in TMD8 cells
- Assay type: cell-based
- MEASUREMENT_PARAMETERS: four hours incubation, Total-BTK HTRF relative to DMSO-treated cells
# maps each entry to its DC50

Reference set (2 entries):
What value of DC50 has been recorded for this entry: CN1CCN([C@@H]2CCCN(c3cnc(C(N)=O)c(Nc4ccc(C5(C)CCN(C(=O)CCOCCC(=O)Nc6cccc7c6CN(C6CCC(=O)NC6=O)C7=O)CC5)cc4)n3)C2)C1=O (stereo partly drawn)
> 15 nM

Looking for the measured DC50 of CN1CCN([C@@H]2CCCN(c3cnc(C(N)=O)c(Nc4ccc(N5CCN(CCC6CCN(c7ccc8c(c7)C(=O)N(C7CCC(=O)NC7=O)C8=O)CC6)CC5)cc4)n3)C2)C1=O (stereo partly drawn) , can you help?
< 5 nM

Turning to the following compound.
Looking for the measured DC50 of CN1CCN([C@@H]2CCCN(c3cnc(C(N)=O)c(Nc4ccc(C5CN(C6CCN(c7ccc8c(c7)C(=O)N(C7CCC(=O)NC7=O)C8=O)CC6)C5)cc4)n3)C2)C1=O (stereo partly drawn) , can you help?
< 5 nM
